B1: SMOC2 (parent)
chain: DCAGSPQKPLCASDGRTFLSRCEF

- Variants of: B1
- test.details: protein stability index of a GFP-peptide fusion (GPS, HEK-293T) (PSI 1-6); higher = more stable;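 further: lentivirally expressed fusions sorted by FACS into six bins by GFP to DsRed ratio, PSI derived from sequencing read proportions per bin multiplied by bin number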
- stated.conditions: c terminus: a fixed tail appended
Could you please report measured protein stability index for the items listed next?
// response body must contain only the number

Incoming: Reported protein stability index for DCAGSKQKPLCASDGRTFLSRCEF [P6K] : what is it?
Outgoing: 1.69

Incoming: Reported protein stability index for DCAGSPIKPLCASDGRTFLSRCEF [Q7I] : what is it?
Outgoing: 1.83

Incoming: Reported protein stability index for DCAGSPKKPLCASDGRTFLSRCEF [Q7K] : what is it?
Outgoing: 3.04

Incoming: Reported protein stability index for DCAGSPQKPLFASDGRTFLSRCEF [C11F] : what is it?
Outgoing: 1.8

Incoming: Reported protein stability index for MCAGSPQKPLCASDGRTFLSRCEF [D1M] : what is it?
Outgoing: 1.7

Incoming: Reported protein stability index for DCAGSPQKGLCASDGRTFLSRCEF [P9G] : what is it?
Outgoing: 2.73

Incoming: Reported protein stability index for DCAGSPQKPLCASDGRAFLSRCEF [T17A] : what is it?
Outgoing: 2.83

Incoming: Reported protein stability index for DCAGSPQKPLCASDGRTFLSRCKF [E23K] : what is it?
Outgoing: 3.63

Incoming: Reported protein stability index for DCAGSPQKPLCASDIRTFLSRCEF [G15I] : what is it?
Outgoing: 2.76

Incoming: Reported protein stability index for DCAGSPQMPLCASDGRTFLSRCEF [K8M] : what is it?
Outgoing: 2.23

Incoming: Reported protein stability index for DCAGSPQKPLCASDGRGFLSRCEF [T17G] : what is it?
Outgoing: 3.97

Incoming: Reported protein stability index for DCAGSPQLPLCASDGRTFLSRCEF [K8L] : what is it?
Outgoing: 2.41

Incoming: Reported protein stability index for DCAGSPQKPLCASDGRTPLSRCEF [F18P] : what is it?
Outgoing: 4

Incoming: Reported protein stability index for DCAGSPQKPLCACDGRTFLSRCEF [S13C] : what is it?
Outgoing: 2.16

Incoming: Reported protein stability index for DCAGSYQKPLCASDGRTFLSRCEF [P6Y] : what is it?
Outgoing: 2.62

Incoming: Reported protein stability index for VCAGSPQKPLCASDGRTFLSRCEF [D1V] : what is it?
Outgoing: 2.35

Incoming: Reported protein stability index for DCPGSPQKPLCASDGRTFLSRCEF [A3P] : what is it?
Outgoing: 2.37
